The origin of these recorded values is patent US11173151B2.

Target: human V1a receptor (Homo sapiens, UniProt P37288)
Sequence (P37288 whole entry): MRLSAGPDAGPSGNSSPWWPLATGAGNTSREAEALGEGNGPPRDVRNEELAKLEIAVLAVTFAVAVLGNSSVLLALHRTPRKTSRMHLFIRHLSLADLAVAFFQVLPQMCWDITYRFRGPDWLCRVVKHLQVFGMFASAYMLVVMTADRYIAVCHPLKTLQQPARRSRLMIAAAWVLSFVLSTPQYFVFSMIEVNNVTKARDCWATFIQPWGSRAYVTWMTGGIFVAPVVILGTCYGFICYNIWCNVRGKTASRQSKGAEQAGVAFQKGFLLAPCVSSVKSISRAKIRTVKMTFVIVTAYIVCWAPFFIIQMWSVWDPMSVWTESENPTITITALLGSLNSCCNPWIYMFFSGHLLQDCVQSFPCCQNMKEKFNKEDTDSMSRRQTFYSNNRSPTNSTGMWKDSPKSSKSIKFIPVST
Assay: Cellular in vitro assay for determining vasopressin receptor activity, V1a receptor cell line (CHO, aequorin luminescence)
Settings: CHO cell line transfected with human V1a receptor; [Arg]-vasopressin at EC50 concentration; read-out: IC50 hV1a
endpoint-name: IC50 (nM)

A. Cn1cncc1C(=O)Nc1ncccc1-n1cnc(Cn2nc(-c3ccc(Cl)cc3)n(C[C@H](O)C(F)(F)F)c2=O)n1 [Example 132]
B. CC1(CNC(=O)c2ccccc2-n2cnc(Cn3nc(-c4ccc(Cl)cc4)n(C[C@H](O)C(F)(F)F)c3=O)n2)COC1 [Example 188]
C. O=C1NCC2(CN(C(=O)c3ccccc3-n3cnc(Cn4nc(-c5ccc(Cl)cc5)n(C[C@H](O)C(F)(F)F)c4=O)n3)C2)N1 [Example 190]
Task: List the 3 molecules shown above, ordered by increasing IC50. Use the labels to give the ranking in the order requested.
Output: B, A, C
(B: 6.83 nM, A: 45.5 nM, C: 300 nM)

---

Target: human V1a receptor (Homo sapiens, UniProt P37288)
Test: Cellular in vitro assay for determining vasopressin receptor activity, V1a receptor cell line (CHO, aequorin luminescence)
Conditions: CHO cell line transfected with human V1a receptor; [Arg]-vasopressin at EC50 concentration; read-out: IC50 hV1a
endpoint-name: IC50 (nM)

>>> reported("O=C(Nc1nncs1)c1ccccc1-n1cnc(Cn2nc(-c3ccc(Cl)cc3)n(C[C@H](O)C(F)(F)F)c2=O)n1")
8.85
>>> reported("O=C(NC1CS(=O)(=O)C1)c1ccccc1-n1cnc(Cn2nc(-c3ccc(Cl)cc3)n(C[C@H](O)C(F)(F)F)c2=O)n1")
15
>>> reported("NC(=O)[C@@H]1CCN(C(=O)c2ccccc2-n2cnc(Cn3nc(-c4ccc(Cl)cc4)n(C[C@H](O)C(F)(F)F)c3=O)n2)C1")
36.5

a. O=C1CN(c2nc(Cn3nc(-c4ccc(Cl)cc4)n(C[C@H](O)C(F)(F)F)c3=O)nn2-c2cccnc2C(=O)NCC(F)(F)F)CCN1
b. O=C(c1ncccc1-n1cnc(Cn2nc(-c3ccc(Cl)cc3)n(C[C@H](O)C(F)(F)F)c2=O)n1)N1CCS(=O)(=O)CC1
c. O=C(Nc1cccc(O)c1)c1ccccc1-n1cnc(Cn2nc(-c3ccc(Cl)cc3)n(C[C@H](O)C(F)(F)F)c2=O)n1
d. O=C(NCc1cccs1)c1ccccc1-n1cnc(Cn2nc(-c3ccc(Cl)cc3)n(C[C@H](O)C(F)(F)F)c2=O)n1
e. CC1(O)CCN(C(=O)c2ccccc2-n2cnc(Cn3nc(-c4ccc(Cl)cc4)n(C[C@H](O)C(F)(F)F)c3=O)n2)C1 (mixture of isomers)
Task: Order the records so the highest IC50 appears first and the lowest last. Returns: the labels arranged in the requested order.
Output: a, b, e, d, c

a. CCC(=O)Nc1ncccc1-n1cnc(Cn2nc(-c3ccc(Cl)cc3)n(C[C@H](O)C(F)(F)F)c2=O)n1
b. CC1(C)COCCN1C(=O)c1ncccc1-n1cnc(Cn2nc(-c3ccc(Cl)cc3)n(C[C@@H](O)C(F)(F)F)c2=O)n1
c. Cc1nnsc1C(=O)Nc1ncccc1-n1cnc(Cn2nc(-c3ccc(Cl)cc3)n(C[C@H](O)C(F)(F)F)c2=O)n1
Task: Write the entries in order, lowest recorded IC50 first. To answer, arrange all of the labels according to the requested order.
Output: c, b, a
(c: 13.5 nM, b: 90 nM, a: 305 nM)

A. CNC(=O)c1cc(Cl)ccc1-n1cnc(Cn2nc(-c3ccc(Cl)cc3)n(C[C@H](O)C(F)(F)F)c2=O)n1
B. O=c1n(Cc2ncn(-c3cnccc3N3CCOCC3)n2)nc(-c2ccc(Cl)cc2)n1C[C@H](O)C(F)(F)F
Task: Which value of IC50 is smaller, the one for A or the one for B ? Please indicate the selected item by its label.
Output: A
(A: 12.3 nM, B: 19.3 nM)

---

Molecular target: human V1a receptor (Homo sapiens, UniProt P37288)
Test: Cellular in vitro assay for determining vasopressin receptor activity, V1a receptor cell line (CHO, aequorin luminescence)
Conditions: CHO cell line transfected with human V1a receptor; [Arg]-vasopressin at EC50 concentration; read-out: IC50 hV1a
endpoint-name: IC50 (nM)

Example cases with answers are listed next.
>>> reported("O=C(NC1CC1F)c1ccccc1-n1cnc(Cn2nc(-c3ccc(Cl)cc3)n(C[C@H](O)C(F)(F)F)c2=O)n1 (mixture of isomers)")
0.47
>>> reported("NC(=O)[C@@H]1CC(F)(F)CN1c1ccncc1-n1cnc(Cn2nc(-c3ccc(Cl)cc3)n(C[C@H](O)C(F)(F)F)c2=O)n1")
1970
>>> reported("O=C(NC1CCCCC1)c1ccccc1-n1cnc(Cn2nc(-c3ccc(Cl)cc3)n(C[C@H](O)C(F)(F)F)c2=O)n1")
2.25
>>> reported("CC1(C)CN(C(=O)c2cccc(Cl)c2-n2cnc(Cn3nc(-c4ccc(Cl)cc4)n(C[C@H](O)C(F)(F)F)c3=O)n2)CCO1")
710
>>> reported("O=c1n(Cc2ncn(-c3cccnc3NCC3CS(=O)(=O)C3)n2)nc(-c2ccc(Cl)cc2)n1C[C@H](O)C(F)(F)F")
2050
>>> reported("NC(=O)[C@@H]1CCCN1c1ncccc1-n1cnc(Cn2nc(-c3ccc(Cl)cc3)n(C[C@H](O)C(F)(F)F)c2=O)n1")
63.5
>>> reported("Cc1cnn(CC(=O)Nc2ncccc2-n2cnc(Cn3nc(-c4ccc(Cl)cc4)n(C[C@H](O)C(F)(F)F)c3=O)n2)c1")
240
>>> reported("CC(C)(C)OC(=O)CNc1ccncc1-n1cnc(Cn2nc(-c3ccc(Cl)cc3)n(C[C@H](O)C(F)(F)F)c2=O)n1")
79.5
>>> reported("NC(CNC(=O)c1ncccc1-n1cnc(Cn2nc(-c3ccc(Cl)cc3)n(C[C@@H](O)C(F)(F)F)c2=O)n1)C(F)(F)F (mixture of isomers)")
210
>>> reported("O=C(Nc1cccnc1-n1cnc(Cn2nc(-c3ccc(Cl)cc3)n(C[C@H](O)C(F)(F)F)c2=O)n1)C1CC(F)(F)C1")
7.05

1. Cc1noc(NC(=O)c2ccccc2-n2cnc(Cn3nc(-c4ccc(Cl)cc4)n(C[C@H](O)C(F)(F)F)c3=O)n2)c1C
2. O=C(NCC(F)(F)F)c1cccnc1-n1nc(Cn2nc(-c3ccc(Cl)cc3)n(C[C@H](O)C(F)(F)F)c2=O)nc1C(=O)N1CCS(=O)(=O)CC1
Task: Please indicate which entry, 1 or 2 , has the lower recorded IC50 value. # respond with the chosen item's label
Output: 1

---

Molecular target: human V1a receptor (Homo sapiens)
Assay: Cellular in vitro assay for determining vasopressin receptor activity, V1a receptor cell line (CHO, aequorin luminescence)
Details: CHO cell line transfected with human V1a receptor; [Arg]-vasopressin at EC50 concentration; read-out: IC50 hV1a
pIC50: −log10 of the molar value.
endpoint-name: pIC50

>>> reported("O=C(c1cccc(Cl)c1-n1cnc(Cn2nc(-c3ccc(Cl)cc3)n(C[C@H](O)C(F)(F)F)c2=O)n1)N1CCCCC1")
7.77

a. O=C(Nc1ncccc1-n1cnc(Cn2nc(-c3ccc(Cl)cc3)n(C[C@H](O)C(F)(F)F)c2=O)n1)C1CC1
b. CNC(=O)c1cccnc1-n1cnc(Cn2nc(-c3ccc(Cl)cc3)n(C[C@H](O)C(F)(F)F)c2=O)n1
c. O=C1CN(c2ccncc2-n2cnc(Cn3nc(-c4ccc(Cl)cc4)n(C[C@H](O)C(F)(F)F)c3=O)n2)CCN1
Task: Could you please sort these 3 entries by pIC50 from high to low? Rank them, then answer with their labels in that order.
Output: a, b, c

---

Target: human V1a receptor (Homo sapiens)
Construct: expressed in transfected cells; host or cells: CHO K1 (ATCC), also stably transfected with a modified aequorin
Test: Cellular in vitro assay for determining vasopressin receptor activity, V1a receptor cell line (CHO, aequorin luminescence)
Format: cell-based
Conditions: selectivity ratio IC50 hV2 / IC50 hV1a
endpoint-name: ratio IC50 hV2/hV1a

>>> reported("O=C(NCC(F)(F)F)c1cccnc1-n1nc(Cn2nc(-c3ccc(Cl)cc3)n(C[C@H](O)C(F)(F)F)c2=O)nc1C(=O)N1CCS(=O)(=O)CC1")
10.3
>>> reported("O=C(Nc1ncccc1-n1cnc(Cn2nc(-c3ccc(Cl)cc3)n(C[C@H](O)C(F)(F)F)c2=O)n1)OCC(F)(F)F")
64.7

A. O=C(c1cccc(Cl)c1-n1cnc(Cn2nc(-c3ccc(Cl)cc3)n(C[C@H](O)C(F)(F)F)c2=O)n1)N1CCC(C(F)(F)F)C1 (mixture of isomers)
B. CC1(C)CNCCN1C(=O)c1ncccc1-n1cnc(Cn2nc(-c3ccc(Cl)cc3)n(C[C@H](O)C(F)(F)F)c2=O)n1
C. O=C(N[C@H]1C[C@H]1F)c1ccncc1-n1nc(Cn2nc(-c3ccc(Cl)cc3)n(C[C@H](O)C(F)(F)F)c2=O)nc1C(=O)N1CCS(=O)(=O)CC1 (racemic)
Task: Order field: ratio IC50 hV2/hV1a | Direction: descending (largest first) Give the labels in the order requested.
Output: B, A, C
(B: 182.9, A: 24.4, C: 3.0)
